B1: Ankyrin repeat and SOCS box protein 14, residues 532 to 572; numbered along this chain, A6NK59 (parent)
chain: RSLKHLCRLKIRKCMGRLHLRCPVFMSFLPLPNRLKAYVLY

variants of: B1; test: abundance fitness (aPCA) (normalised: wild type 0, dead -1); higher = more abundant; growth selection in yeast, the domain comes from the species named; settings: Homo sapiens
measure-name: abundance fitness

Worked examples, 2 variants total:
INSERT INTO assay_data (mutation_annotation, measure_name, result) VALUES
  ('F28C', 'abundance fitness', -0.198),
  ('R34C', 'abundance fitness', -0.204);

Give me abundance fitness for each of these variants, listed below.
1. L29A
2. R1A
3. H19W
4. R8C

1. -0.356
2. -0.414
3. -0.053
4. 0.006

Give me abundance fitness for each of these variants, listed below.
1. C22E
2. P23D

1. -0.455
2. 0.315

Give me abundance fitness for each of these variants, listed below.
1. Y38P
2. L20E

1. -0.731
2. 0.249
